# TESTED_SYSTEM: T1, mfNPR1-mFc:hBNP complex (monkey; human, UniProt P16860 103-134)
# T1 construct: also called monkey NPR1 complexed to BNP
# MEASUREMENT_PROTOCOL: SPR, mAb captured, 25C
RECORDED_ENDPOINT: koff (s⁻¹)
Report the value in s⁻¹ with no unit label.

Fill in: koff of mAb22033 (antibody, human IgG4, V domains shown) VH: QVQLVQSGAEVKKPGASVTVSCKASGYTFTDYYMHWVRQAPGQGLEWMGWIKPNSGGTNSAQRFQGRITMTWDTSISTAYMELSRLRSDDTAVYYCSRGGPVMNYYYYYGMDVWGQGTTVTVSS VL: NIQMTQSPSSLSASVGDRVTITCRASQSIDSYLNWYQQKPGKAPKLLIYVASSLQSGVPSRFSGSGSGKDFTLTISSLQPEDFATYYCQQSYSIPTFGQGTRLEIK is ___ 5.15e-05

How about this binder: mAb22805 (antibody, human IgG4, V domains shown) VH: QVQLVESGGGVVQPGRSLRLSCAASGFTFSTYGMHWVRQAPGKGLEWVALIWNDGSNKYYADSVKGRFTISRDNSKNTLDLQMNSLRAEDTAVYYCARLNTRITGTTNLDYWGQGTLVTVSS VL: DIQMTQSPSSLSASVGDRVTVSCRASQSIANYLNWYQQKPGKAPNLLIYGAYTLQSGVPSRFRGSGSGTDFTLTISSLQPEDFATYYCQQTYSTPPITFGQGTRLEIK 9.6e-05

Try this binder next: mAb25502 (antibody, human IgG4, V domains shown) VH: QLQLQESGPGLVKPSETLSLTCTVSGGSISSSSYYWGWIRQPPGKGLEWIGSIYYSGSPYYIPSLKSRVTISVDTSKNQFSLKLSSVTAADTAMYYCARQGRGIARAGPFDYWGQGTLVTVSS VL: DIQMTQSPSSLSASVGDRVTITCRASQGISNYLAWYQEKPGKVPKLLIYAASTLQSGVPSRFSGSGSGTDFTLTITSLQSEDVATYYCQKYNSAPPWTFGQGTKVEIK 0.000282

Also mAb25491 (antibody, human IgG4, V domains shown) VH: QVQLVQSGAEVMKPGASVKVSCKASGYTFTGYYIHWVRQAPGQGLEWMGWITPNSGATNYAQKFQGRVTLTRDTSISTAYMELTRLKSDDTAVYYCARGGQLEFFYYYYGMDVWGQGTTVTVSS VL: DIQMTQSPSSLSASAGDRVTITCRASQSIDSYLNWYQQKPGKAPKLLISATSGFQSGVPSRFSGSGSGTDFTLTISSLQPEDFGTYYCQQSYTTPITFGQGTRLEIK , if possible. 3.71e-05
